Reported inhibition at 1 µM values follow for various molecules
# measured-on: Lck (h) (Homo sapiens)
# Sequence (P06239 whole entry): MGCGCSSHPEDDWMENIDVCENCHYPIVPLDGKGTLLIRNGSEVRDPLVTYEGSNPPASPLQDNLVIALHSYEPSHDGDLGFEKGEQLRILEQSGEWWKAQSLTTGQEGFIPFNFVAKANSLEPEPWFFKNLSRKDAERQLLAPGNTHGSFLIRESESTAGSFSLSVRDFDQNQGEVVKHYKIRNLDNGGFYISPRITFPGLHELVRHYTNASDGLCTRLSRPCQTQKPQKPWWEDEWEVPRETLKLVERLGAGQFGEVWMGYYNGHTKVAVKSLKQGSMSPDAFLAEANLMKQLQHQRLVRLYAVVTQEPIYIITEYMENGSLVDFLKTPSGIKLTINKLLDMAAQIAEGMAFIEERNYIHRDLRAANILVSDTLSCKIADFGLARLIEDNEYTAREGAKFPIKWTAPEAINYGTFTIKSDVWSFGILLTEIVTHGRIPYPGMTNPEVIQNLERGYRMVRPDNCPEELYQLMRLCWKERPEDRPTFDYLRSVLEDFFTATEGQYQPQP
# experiment-summary: Kinase profiling, glass-fiber filter technology: Lck
# Format: biochemical
# study-conditions: test concentration of 10^−6 M; read-out: Lck inhibition score
measurement-type: inhibition at 1 µM

>>> df
                                   molecule  readout_value
0  CN1CCCCCOc2cc3c(ncnc3cc2OC[C@@H](O)CN2CCS(=O)(=O)CC2)Nc2cc(Br)ccc2C1 [Compound 12]          > 80%
1  COCCOCCOc1cc2ncnc3c2cc1OCCCCCN(C)Cc1ccc(Br)cc1N3 [Int. 43]          > 80%
2  COc1cc2ncnc3c2cc1OCCCN(CCN1CCOCC1)C(=O)CNC(=O)Cc1ccc(Cl)cc1N3 [Compound 15]      30 to 60%
3  COc1cc2ncnc3c2cc1OCCCN(CCCN1CCOCC1)C(=O)[C@H](CC(C)C)NC(=O)Cc1ccc(Br)cc1N3 [Int. 25]      60 to 80%
4  CN1CCCCCOc2cc3c(ncnc3cc2OC[C@H](O)CNCCOCCO)Nc2cc(Cl)c(F)cc2C1 [Compound 17]          > 80%
5  CC(=O)N(CCO)CCCOc1cc2ncnc3c2cc1OCCCNC(=O)[C@H](C)N(C)Cc1cc(F)c(Cl)cc1N3 [Compound 5]      60 to 80%
6  COc1cc2ncnc3c2cc1OCCCNC(=O)[C@H](CC1CCCCC1)NC(=O)CCc1ccc(Cl)cc1N3 [Compound 8]          > 80%

###

# measured-on: ErbB4 (h) (Homo sapiens)
# Sequence (Q15303 26-1308): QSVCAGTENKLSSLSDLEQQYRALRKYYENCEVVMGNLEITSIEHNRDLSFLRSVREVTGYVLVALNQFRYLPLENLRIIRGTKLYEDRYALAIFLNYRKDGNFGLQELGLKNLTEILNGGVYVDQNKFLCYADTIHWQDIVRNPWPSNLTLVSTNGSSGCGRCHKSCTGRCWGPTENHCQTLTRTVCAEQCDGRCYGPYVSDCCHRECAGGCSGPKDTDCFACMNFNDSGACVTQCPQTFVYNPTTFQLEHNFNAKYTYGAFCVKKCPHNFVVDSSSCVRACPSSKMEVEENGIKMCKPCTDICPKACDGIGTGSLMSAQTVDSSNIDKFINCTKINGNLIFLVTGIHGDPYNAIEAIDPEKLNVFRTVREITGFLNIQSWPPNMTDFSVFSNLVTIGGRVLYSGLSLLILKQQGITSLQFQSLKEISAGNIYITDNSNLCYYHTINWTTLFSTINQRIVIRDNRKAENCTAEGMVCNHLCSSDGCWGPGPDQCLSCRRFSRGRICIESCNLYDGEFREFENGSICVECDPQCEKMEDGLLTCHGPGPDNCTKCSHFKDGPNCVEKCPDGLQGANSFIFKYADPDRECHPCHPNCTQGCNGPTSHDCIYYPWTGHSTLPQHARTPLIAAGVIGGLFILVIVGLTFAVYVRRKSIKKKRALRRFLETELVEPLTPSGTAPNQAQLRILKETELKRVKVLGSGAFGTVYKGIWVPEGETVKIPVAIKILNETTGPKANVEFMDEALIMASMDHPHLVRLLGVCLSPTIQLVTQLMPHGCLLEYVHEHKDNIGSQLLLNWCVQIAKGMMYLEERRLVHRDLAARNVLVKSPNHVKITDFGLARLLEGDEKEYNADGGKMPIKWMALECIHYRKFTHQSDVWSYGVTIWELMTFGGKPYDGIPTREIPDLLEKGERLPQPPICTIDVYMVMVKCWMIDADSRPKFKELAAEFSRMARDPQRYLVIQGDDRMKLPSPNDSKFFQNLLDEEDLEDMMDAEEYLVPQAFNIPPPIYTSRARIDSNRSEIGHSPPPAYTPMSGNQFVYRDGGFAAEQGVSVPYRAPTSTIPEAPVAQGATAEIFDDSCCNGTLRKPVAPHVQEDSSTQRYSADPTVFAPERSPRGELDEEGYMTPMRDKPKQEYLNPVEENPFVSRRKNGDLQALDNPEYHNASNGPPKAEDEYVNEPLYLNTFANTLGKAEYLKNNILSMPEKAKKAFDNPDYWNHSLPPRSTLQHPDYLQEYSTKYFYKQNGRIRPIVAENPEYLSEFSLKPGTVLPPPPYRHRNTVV
# experiment-summary: Kinase profiling, glass-fiber filter technology: ErbB4
# Format: biochemical
# study-conditions: test concentration of 10^−6 M; read-out: ErbB4 inhibition score
Reported inhibition at 1 µM values follow for various compounds
measurement-type: inhibition at 1 µM

                              sample_smiles    measurement_type  readout_value
0  CN1CCCCCOc2cc3c(ncnc3cc2OCCCN2CCS(=O)(=O)CC2)Nc2cc(Cl)c(F)cc2C1  inhibition at 1 µM      60 to 80%
1  CC(=O)NCCN1CCN(CCCOc2cc3ncnc4c3cc2OCCCNC(=O)[C@H](C)N(C)Cc2cc(F)c(Cl)cc2N4)CC1  inhibition at 1 µM      60 to 80%
2  CN1CCCCCOc2cc3c(ncnc3cc2OC[C@H](O)CNCCOCCO)Nc2cc(Cl)c(F)cc2C1  inhibition at 1 µM          > 80%
3  CN1CCCCCOc2cc3c(ncnc3cc2OC[C@@H](O)CN2CCS(=O)(=O)CC2)Nc2cc(Br)ccc2C1  inhibition at 1 µM      60 to 80%

###

# measured-on: Blk (m) (Mus musculus, UniProt P16277)
# Sequence (P16277 whole entry): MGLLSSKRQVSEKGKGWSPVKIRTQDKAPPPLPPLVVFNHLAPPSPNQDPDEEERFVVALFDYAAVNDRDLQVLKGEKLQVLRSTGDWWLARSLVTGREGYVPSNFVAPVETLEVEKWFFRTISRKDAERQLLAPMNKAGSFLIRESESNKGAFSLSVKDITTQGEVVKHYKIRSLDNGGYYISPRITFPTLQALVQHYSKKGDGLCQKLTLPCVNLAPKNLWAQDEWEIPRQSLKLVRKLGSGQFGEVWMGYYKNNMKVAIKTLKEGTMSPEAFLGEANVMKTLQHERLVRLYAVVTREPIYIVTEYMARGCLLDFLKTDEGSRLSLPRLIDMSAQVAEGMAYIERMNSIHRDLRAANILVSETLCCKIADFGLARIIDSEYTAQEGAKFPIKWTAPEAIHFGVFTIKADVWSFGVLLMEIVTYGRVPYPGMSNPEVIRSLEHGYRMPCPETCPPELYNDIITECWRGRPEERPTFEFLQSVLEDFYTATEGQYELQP
# experiment-summary: Kinase profiling, glass-fiber filter technology: Blk
# Assay type: biochemical
# study-conditions: test concentration of 10^−6 M; read-out: Blkl inhibition score
measurement-type: inhibition at 1 µM

In [3]: df
Out[3]:
                              sample_smiles  readout_value
0  COc1cc2ncnc3c2cc1OCCN(CCN1CCOCC1)C(=O)CNC(=O)Cc1ccc(Cl)cc1N3      30 to 60%
1  CC(=O)N(CCO)CCCOc1cc2ncnc3c2cc1OCCCNC(=O)[C@H](C)N(C)Cc1cc(F)c(Cl)cc1N3          > 80%
2  CC(=O)OCCN(C)CCCOc1cc2ncnc3c2cc1OCCCNC(=O)[C@H](C)N(C)Cc1cc(F)c(Cl)cc1N3          > 80%
3  CN1CCCCCOc2cc3c(ncnc3cc2OCCCN2CCS(=O)(=O)CC2)Nc2cc(Cl)c(F)cc2C1          > 80%
